Measured values drawn from paper PMC12416549 for this set.

Molecular target: T1, TNFR1 (Homo sapiens, UniProt P19438)
T1 chain: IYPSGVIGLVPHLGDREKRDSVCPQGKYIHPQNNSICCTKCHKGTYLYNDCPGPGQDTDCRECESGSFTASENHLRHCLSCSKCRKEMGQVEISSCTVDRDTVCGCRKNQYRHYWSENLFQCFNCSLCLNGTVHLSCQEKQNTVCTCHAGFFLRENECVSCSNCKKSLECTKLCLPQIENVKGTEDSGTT
Assay: yeast display SC50

| binder | apparent Kd (screen), nM |
| --- | --- |
| V85F (designed binder) MTLQELLREEALRRAEAEAFRYALELLAEKFPEQKEYLLDLAEEIESQIRSLSGVDVEDVRKFLDKEWAWVKELLAEHPAELAEFEAARAARLAELRAEVEAKVAA | 0.79 |
| E101S (designed binder) MTLQELLREEALRRAEAEAFRYALELLAEKFPEQKEYLLDLAEEIESQIRSLSGVDVEDVRKFLDKEWAWVKELLAEHPAELAEVEAARAARLAELRAEVSAKVAA | 0.956 |
| E43A (designed binder) MTLQELLREEALRRAEAEAFRYALELLAEKFPEQKEYLLDLAAEIESQIRSLSGVDVEDVRKFLDKEWAWVKELLAEHPAELAEVEAARAARLAELRAEVEAKVAA | 0.79 |
| L93C (designed binder) MTLQELLREEALRRAEAEAFRYALELLAEKFPEQKEYLLDLAEEIESQIRSLSGVDVEDVRKFLDKEWAWVKELLAEHPAELAEVEAARAARCAELRAEVEAKVAA | 0.653 |
| P32E (designed binder) MTLQELLREEALRRAEAEAFRYALELLAEKFEEQKEYLLDLAEEIESQIRSLSGVDVEDVRKFLDKEWAWVKELLAEHPAELAEVEAARAARLAELRAEVEAKVAA | 0.49 |
| Y22T (designed binder) MTLQELLREEALRRAEAEAFRTALELLAEKFPEQKEYLLDLAEEIESQIRSLSGVDVEDVRKFLDKEWAWVKELLAEHPAELAEVEAARAARLAELRAEVEAKVAA | 0.49 |
| F63K (designed binder) MTLQELLREEALRRAEAEAFRYALELLAEKFPEQKEYLLDLAEEIESQIRSLSGVDVEDVRKKLDKEWAWVKELLAEHPAELAEVEAARAARLAELRAEVEAKVAA | 5.31 |
| E18A (designed binder) MTLQELLREEALRRAEAAAFRYALELLAEKFPEQKEYLLDLAEEIESQIRSLSGVDVEDVRKFLDKEWAWVKELLAEHPAELAEVEAARAARLAELRAEVEAKVAA | 0.718 |
